Test system: SF-268 CNS
ASSAY_TEXT: NCI-60 one-dose screen, 48 h (100 = growth as untreated, 0 = no growth, -100 = all killed)
PARTICULARS: 10 µM unless noted
Compounds without any hit were thinned out: in the full panel of roughly 83,000, 20% have a hit. The source made the active and inactive calls. How the source made its calls: active means growth percent below 10; inactive means the rest.
REPORTED_METRIC: growth

# MOLECULE, growth
records = [
    ("COc1ccc(C2CC(c3ccc(Cl)cc3)=NN2/C=C2\\SC(=S)N(NC(=O)Cc3ccccc3Nc3c(Cl)cccc3Cl)C2=O)cc1 (stereo not drawn)", "62.9% (inactive)"),
    ("O=C1NC(=O)C(c2ccc(Cl)cc2Cl)N1 (stereo not drawn)", "106% (inactive)"),
    ("CSc1ccc(SC2c3ccc(C)cc3Oc3nc(N)c(C#N)c(N)c32)cc1 (stereo not drawn)", "-26.1% (active)"),
]

State recorded growth for all listed molecules.
1. C=C1c2nc3ccccc3n2C=C(c2cccc(Cl)c2)N1Cc1ccc(OC)cc1
2. Cc1c(/C=C/[N+](=O)[O-])ccc2c1[nH]c1ccccc12
3. COc1cc(-c2nc3cc(Cl)c(Cl)cc3[nH]2)ccc1OCC(=O)N=Nc1c(O)[nH]c2ccccc12
4. COc1cccc(-c2nc3sccn3c2-c2ccnc(NCCNS(=O)(=O)c3ccccc3)c2)c1
5. CCCCn1c(-c2ccc(C(=O)O/N=C(\N)c3ccc4ccccc4c3)cc2)nc(-c2ccccc2)c1-c1ccccc1
6. COc1ccc(-n2nc(C)c3c(Nc4ccc(NC(=O)Nc5c(Cl)cccc5Cl)cc4)ncnc32)cc1
7. C=CCSSc1ncnc2c1ncn2C1OC(CO)C(O)C1O (stereo not drawn)

1: 21.7% (inactive); 2: 108% (inactive); 3: -34.9% (active); 4: 31.9% (inactive); 5: 48.9% (inactive); 6: 59.4% (inactive); 7: 28% (inactive)
